Tested on: Trypanosoma cruzi
Procedure text: Antitrypanosomal activity against Trypanosoma cruzi Dm28c intracellular amastigotes transfected in African green monkey Vero cells assessed as inhibition of intracellular amastigotes viability measured after 24 hrs by MTT assay
Type: functional, organism-based
Assay metric: IC50 (µM)
Quick note: give the figure in µM, leave out the unit.

Determine from records and report IC50 for CC1(C(CC(=O)/C=C/c2ccccc2)c2ccccc2)N=C(c2ccccc2)OC1=O (stereo unspecified)
2.34

---

Procedure text: Selectivity index, ratio of IC50 for cytotoxicity against monkey LLC-MK2 cells to IC50 for antitrypanosomal activity against Trypanosoma cruzi Y intracellular amastigote transfected in monkey LLC-MK2 cells
Assay type: toxicity, cell-based
Cond: read-out: Ratio IC50
Assay metric: selectivity ratio

Supply selectivity ratio value. Item: "N/C(S)=N/N=C/c1ccc([N+](=O)[O-])cc1"
11.6

---

Tested on: Trypanosoma cruzi
Procedure text: Antitrypanosomal activity against Trypanosoma cruzi […] assessed as inhibition of […] viability
Format: functional, organism-based
Assay metric: IC50

Lab note: record IC50 of "COc1cccc(Nc2c(C#N)cnc3ccc(Cl)cc23)c1" tested on Trypanosoma cruzi.
< 1000 nM

---

Procedure text: Selectivity index, ratio of IC50 for cytotoxicity against monkey LLC-MK2 cells to IC50 for antitrypanosomal activity against Trypanosoma cruzi Y […] transfected in monkey LLC-MK2 cells
Format: toxicity, cell-based
Cond: read-out: Ratio IC50
Assay metric: selectivity ratio
Lab note: jot down the number only; don't add units.

Answer with the recorded selectivity ratio for the compound listed here: "N/C(S)=N/N=C/c1ccc([N+](=O)[O-])cc1"
26.2

---

Procedure text: Selectivity index, ratio of IC50 for cytotoxicity against African green monkey Vero cells to IC50 for antitrypanosomal activity against Trypanosoma cruzi Dm28c […] transfected in African green monkey Vero cells
Type: toxicity, cell-based
Cond: read-out: Ratio IC50
Assay metric: selectivity ratio
Just the number, please.

Give the reported value of selectivity ratio for this record: CC1(C(CC(=O)/C=C/c2ccccc2)c2ccccc2)N=C(c2ccccc2)OC1=O (stereo unspecified)
6.74

Numbers sourced from ChEMBL document CHEMBL5244213.
